Test system: CBC (HapB/HapC/HapE) (Aspergillus fumigatus)
experimental_protocol: SPR
condition_notes: SPR on immobilised biotinylated duplexes, 1:1 model with mass transport; buffer, salt, pH and temperature not stated (protocols of refs 19, 54)
pKd: −log10 of the molar value.

{"columns": ["sequence_text", "measurement_target", "pKd"],
 "data": [
  ["GCTGAGCCGAATGAAAGTTGCCTAATTACTAAGGTGT (double strand) [cyp51A-293]", "CBC (HapB/HapC/HapE) (Aspergillus fumigatus)", 7.13]
]}

* * *

sequences and their reported Kd
measurement_target: SrbA bHLHZ (Aspergillus fumigatus)
Sequence: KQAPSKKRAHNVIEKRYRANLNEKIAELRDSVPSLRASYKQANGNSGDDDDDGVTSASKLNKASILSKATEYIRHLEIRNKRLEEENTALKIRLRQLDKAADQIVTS
experimental_protocol: SPR
condition_notes: SPR on immobilised biotinylated duplexes, 1:1 model with mass transport; buffer, salt, pH and temperature not stated (protocols of refs 19, 54)

{"columns": ["sequence_text", "Kd [nM]"],
 "data": [
  ["AGAATCACGCGGTCCG (double strand) [SRE1 (cyp51Ap-320-16)]", 22.8],
  ["CGGCTCAGCACACATC (double strand) [SRE2 (cyp51Ap-295-16)]", 273]
]}
